Test system: NCI/ADR-RES
assay.method.text: NCI tumour cell line growth inhibition, 48 h
Active and inactive are the calls of the source. Cut-off read from the data, not from the text of the source: active = GI50 up to about 1.1 µM and inactive = higher.
List of GI50 values.
parameter: GI50

COC(=O)[C@H](Cc1ccccc1)NC(=O)c1ccc(CNC(=O)/C=C/c2csc(-c3ccccc3)n2)cc1    21.2 µM (inactive)
CCOC(=O)c1nc2ccc(C(F)(F)F)cc2nc1NCc1ccc(OC)c(OC)c1    37 µM (inactive)
Cc1ccc(SCC(CF)OCn2cc(F)c(=O)[nH]c2=O)cc1 (stereo not drawn)    > 100 µM (inactive)
O=C(c1ccccc1)c1sc2c(=O)c(C(=O)c3ccccc3)c(C(=O)c3ccccc3)sc2c(=O)c1C(=O)c1ccccc1    24.5 µM (inactive)
O=S(=O)(O)c1ccc(/N=N\c2ccc(/N=N\c3ccc(/C=C/c4ccc(/N=[N+](/[O-])c5ccc(/C=C/c6ccc(/N=N/c7ccc(/N=N\c8ccc(S(=O)(=O)O)cc8)cc7)cc6S(=O)(=O)O)c(S(=O)(=O)O)c5)cc4S(=O)(=O)O)c(S(=O)(=O)O)c3)cc2)cc1    > 100 µM (inactive)
Cc1nc2c(cc1C(=O)NN)c(=O)n(C)c(=O)n2C    > 100 µM (inactive)
CC(C)(C)c1ccc(NS(=O)(=O)c2ccc(N)cc2)cc1    25.4 µM (inactive)
C=CC[C@@]1(C)CCCCCCCCC[C@@](C)(CC=C)C1=O    32.7 µM (inactive)

* * *

Test system: LXFL 529
assay.method.text: NCI tumour cell line growth inhibition, 48 h
Calls of active or inactive are those of the source. Rule as the data show it: active = GI50 up to about 1.1 µM and inactive = higher.
Outcomes: yes (active), no (inactive)

O=C1C(O)=C(CC=C(Cl)Cl)C(=O)c2ccccc21    no
C[C@]12CCC(=O)C[C@H]1CCC(O)[C@@H]2Br (stereo partly drawn)    no
Cn1c(=O)c(/N=N/c2c(=O)n(C)c(=O)n3c2[nH]c2ccccc23)c2[nH]c3ccccc3n2c1=O    no
CCOc1ccccc1/N=N/c1ccc2oc(=O)c(C(=O)Nc3cccc(C)c3)cc2c1    no
Cc1ccc(C)c(NC(=O)C(=O)C(C(=O)c2ccc3ccccc3c2)C2OC(=O)c3ccccc32)c1 (stereo not drawn)    no
O=C(Nc1c(O)[nH]c(=S)[nH]c1=O)c1ccco1    no
N#C/C(=C\c1ccc(O)c(O)c1)c1c(C#N)c(N)nn1-c1ccccc1    no
O/N=C1/CCC/C1=C\c1ccccc1    no
COc1ccc(C(=O)C(C(=O)CCC(=O)Nc2ccc(C)c(C)c2)c2ccc(OC)cc2)cc1 (stereo not drawn)    no
CC(O)C(C(=O)O)N(CC1(O)OCC(O)C(O)C1O)N=O (stereo not drawn)    no
CN(C)C(=O)c1ccc([N+](=O)[O-])cc1    no
CC(C)COC1Sc2ccccc2S1    no
CCCCCC/C=C1\CCC(CN2CCCC2)C1=O (stereo not drawn)    no
[O-][Cl+3]([O-])([O-])[O-].c1ccc(C[P+]2(c3ccccc3)CCCCC2)cc1    no
OC1CCSc2ccccc21 (stereo not drawn)    no
Nc1nc2c3c(ncn3CC(O)CO2)n1 (stereo not drawn)    no
C/C(=N\Nc1ccccc1)c1sc(-c2nc(C)c(/C(C)=N/Nc3ccccc3)s2)nc1C    no
CC(c1ccccc1)/[N+]([O-])=C/c1ccccc1 (stereo not drawn)    no
N#Cc1ccccc1/C=N/O    no
C=C1C(=O)OC2/C=C(\C(=O)O)CC/C=C(\C)CC(OC(=O)/C=C(\C)CC)C12 (stereo not drawn)    no
O=C(NNC(=O)/C(=C/c1cccc([N+](=O)[O-])c1)NC(=O)c1ccccc1)Nc1ccc(Cl)cc1    no
N/N=C1\c2ccccc2C2/C(=N\N)c3ccccc3C12 (stereo not drawn)    no
C/C(Cc1ccccc1)=N\NC(N)=S    no
CN(C)c1ccc(/C=C(\C#N)C(=O)c2ccccc2)cc1Br    no
CCCCCCCCC(=O)N(C)C1C2CN3CCC(O2)C13 (stereo not drawn)    no
Cn1ncnc1CCc1ccccc1    no
CC(=O)O/N=C/c1ncccc1CO    no
CC[C@@]1(O)C(=O)OCc2c1cc1n(c2=O)Cc2cc3c(N)cccc3nc2-1    yes
